pKi values for Histone deacetylase 3 (Homo sapiens) compiled from several publications are listed below.
Answers are plain numbers, as −log10 of the molar value.

INSERT INTO assay_data (smiles, parameter, value_observed) VALUES
  ('O=C(/C=C/c1ccc2c(c1)nc(CCc1ccccc1)n2CCN1CCCCC1)NO', 'pKi', 7.96);

For every listed record, write down its pKi.
1. CCCCCc1nc2cc(/C=C/C(=O)NO)ccc2n1CCNC(C)C
2. CC/C=C\CCc1nc2cc(/C=C/C(=O)NO)ccc2n1CCNCC
3. O=C(CCCCCNC(=O)NC(=O)c1ccc(Br)cc1)NO
4. C=C[C@@H](O)[C@@H]1O[C@H]1/C=C/[C@@H]1O[C@H]1[C@@H](C)O

OUT:
[8.00, 7.80, 8.10, 4.84]
